Test system: A549
Test Description: Cytotoxicity assay (cell titer-glo and calcein AM), A549
Recorded Conditions: read-out: Cytotoxicity IC50, A549, CTG; A549; CTG (cell titer-glo) readout; % error in parentheses
pIC50: −log10 of the molar value.

Molecule	Target	Qualifying Sign	pIC50
CCCCCCCCCC(=O)NC[C@H]1O[C@@H](N(CC(=O)N[C@H]2CCc3cc(OC)c(OC)c(OC)c3-c3ccc(OC)c(=O)cc32)OC)[C@H](O)[C@@H](O)[C@@H]1O [Col59, 6-deoxy-6-N-decanoyl-D-glucosaminoside]	A549	=	5.09
COc1cc2c(c(OC)c1OC)-c1ccc(OC)c(=O)cc1[C@@H](NC(=O)CN(OC)[C@@H]1O[C@H](C)[C@H](O)[C@H](O)[C@H]1O)CC2 [Col9, D-fucoside]	A549	<	5.00
COc1cc2c(c(OC)c1OC)-c1ccc(OC)c(=O)cc1C(NC(=O)CN(OC)C1OC(C)C(O)C(O)C1O)CC2 [Col37, L-rhamnoside]	A549	=	5.15
COc1cc2c(c(OC)c1OC)-c1ccc(OC)c(=O)cc1[C@@H](NC(=O)CN(OC)[C@@H]1O[C@H](CBr)[C@H](O)[C@H](O)[C@H]1O)CC2 [Col42, 6-deoxy-6-bromo-D-galactoside]	A549	=	5.40
COc1cc2c(c(OC)c1OC)-c1ccc(OC)c(=O)cc1C(NC(=O)CN(OC)C1OC(COCc3ccccc3)C(OCc3ccccc3)C1OCc1ccccc1)CC2 (centres unmarked)	A549	=	7.32
COc1cc2c(c(OC)c1OC)-c1ccc(OC)c(=O)cc1[C@@H](NC(=O)CN(OC)[C@@H]1OC[C@@H](O)[C@H](O)[C@H]1O)CC2 [Col4, D-xyloside]	A549	<	5.00
COc1cc2c(c(OC)c1OC)-c1ccc(OC)c(=O)cc1C(NC(=O)CN(OC)C1OCC(O)C(O)C1O)CC2 [Col20, D-arabinoside]	A549	=	5.04
CCCCCCCCCC(=O)N[C@@H]1[C@@H](O)[C@H](N(CC(=O)N[C@H]2CCc3cc(OC)c(OC)c(OC)c3-c3ccc(OC)c(=O)cc32)OC)O[C@H](CO)[C@H]1O [Col60, 3-deoxy-3-N-decanoyl-D-glucosaminoside]	A549	<	5.00
COc1cc2c(c(OC)c1OC)-c1ccc(OC)c(=O)cc1[C@@H](NC(=O)CN(OC)[C@@H]1O[C@H](CF)[C@@H](O)[C@H](O)[C@H]1O)CC2 [Col54, 6-deoxy-6-fluoro-D-glucoside]	A549	<	5.00
COc1cc2c(c(OC)c1OC)-c1ccc(OC)c(=O)cc1[C@@H](NC(=O)CN(OC)[C@@H]1O[C@H](CO)[C@@H](O[C@H]3O[C@H](CO)[C@@H](O)[C@H](O)[C@H]3O)[C@H](O)[C@H]1O)CC2 [Col38, D-maltoside]	A549	=	6.61
COc1cc2c(c(OC)c1OC)-c1ccc(OC)c(=O)cc1C(NC(=O)CN(OC)C1OC(C)C(O)C(O)C1O)CC2 [Col14, L-fucoside]	A549	<	5.00
